Overview of recorded pIC50 for various compounds
biological target: intracellular kinase domain of human IGF-1R (GST fusion protein) (Homo sapiens, UniProt P08069); construct: IGFRK and IRK enzyme used for the assay was intracellular kinase domain of human IGF-1R; GST; assay: In vitro IGF-1R kinase assay (HTRF); conditions: ATP 20 μM, IGFRK 0.25 nM
Sequence (P08069 999-1274 limits assumed): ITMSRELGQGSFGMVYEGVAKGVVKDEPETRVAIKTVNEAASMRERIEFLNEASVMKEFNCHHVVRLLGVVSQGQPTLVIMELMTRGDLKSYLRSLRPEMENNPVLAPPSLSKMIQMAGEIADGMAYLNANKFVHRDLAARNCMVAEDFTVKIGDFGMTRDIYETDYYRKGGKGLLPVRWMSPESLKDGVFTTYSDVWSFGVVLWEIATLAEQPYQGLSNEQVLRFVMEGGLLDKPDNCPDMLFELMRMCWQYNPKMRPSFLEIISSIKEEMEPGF
FYI, pIC50 means -log10 of a concentration in mol per litre.

                              smiles_record  measured_attribute  recorded_value
0  CCOc1ccc(-c2cccc(OC[C@@H]3CN(S(=O)(=O)c4c(C(N)=O)[nH]c5ccc(Cl)cc45)CCO3)c2)cn1               pIC50            8.00

query: Endpoint output: pIC50 of `Cc1ccc(-c2cccc(OC[C@@H]3CN(S(=O)(=O)c4c(C(N)=O)[nH]c5ccc(Cl)cc45)CCO3)c2)cn1` . Value?
result: 7.93

query: Endpoint output: pIC50 of `Cc1ccc(OC[C@@H]2CN(S(=O)(=O)c3c(C(N)=O)[nH]c4ccc(Cl)cc34)CCO2)cc1-c1ccccc1F` . Value?
result: 6.74

query: Item `NC(=O)c1[nH]c2ccc(Cl)cc2c1S(=O)(=O)N1CCO[C@H](COc2cccc(-c3ccncc3)c2)C1` has what recorded pIC50?
result: 8.07

query: Form field: reported pIC50 of `NC(=O)c1[nH]c2ccc(Cl)cc2c1S(=O)(=O)N1CCO[C@H](COc2cccc(-c3ccccc3)c2)C1`
result: 7.48

query: Form field: reported pIC50 of `NC(=O)c1[nH]c2ccc(Cl)cc2c1S(=O)(=O)N1CCO[C@H](COc2ccc(-c3ccccc3)nc2)C1`
result: 7.60

query: Name the recorded pIC50 for `NC(=O)c1[nH]c2ccc(Cl)cc2c1S(=O)(=O)N1CCO[C@H](COc2cccc(-c3ccnc(F)c3)c2)C1` .
result: 8.47

query: I have this compound here, `NC(=O)c1[nH]c2ccc(Cl)cc2c1S(=O)(=O)N1CCO[C@H](COc2cccc(-c3cccnc3F)c2)C1` , and I need its recorded pIC50.
result: 7.51

query: Could you share which pIC50 value was measured for `NC(=O)c1[nH]c2ccc(Cl)cc2c1S(=O)(=O)N1CCO[C@H](COc2ccc(F)c(-c3cncnc3)c2)C1` ?
result: 8.33

query: # pIC50 lookup, item `NC(=O)c1[nH]c2ccc(Cl)cc2c1S(=O)(=O)N1CCO[C@H](COc2ccc(-c3ccccc3C(F)(F)F)cc2)C1`
result: 6.95

query: What pIC50 value was documented for this compound, `Cc1cc(OC[C@@H]2CN(S(=O)(=O)c3c(C(N)=O)[nH]c4ccc(Cl)cc34)CCO2)ccc1-c1ccnc(Cl)c1` ?
result: 8.03

###

List of inhibition at 10 uM values.
biological target: CYP2D6 (Homo sapiens, UniProt P10635); construct: purchased Invitrogen (Vivid screening kits); assay: CYP inhibition fluorescence assay (rhCYP450, Vivid Invitrogen kit); format: in vitro ADME; conditions: human, read-out: % inhibition @ 10 uM 2D6
Sequence (P10635 whole entry): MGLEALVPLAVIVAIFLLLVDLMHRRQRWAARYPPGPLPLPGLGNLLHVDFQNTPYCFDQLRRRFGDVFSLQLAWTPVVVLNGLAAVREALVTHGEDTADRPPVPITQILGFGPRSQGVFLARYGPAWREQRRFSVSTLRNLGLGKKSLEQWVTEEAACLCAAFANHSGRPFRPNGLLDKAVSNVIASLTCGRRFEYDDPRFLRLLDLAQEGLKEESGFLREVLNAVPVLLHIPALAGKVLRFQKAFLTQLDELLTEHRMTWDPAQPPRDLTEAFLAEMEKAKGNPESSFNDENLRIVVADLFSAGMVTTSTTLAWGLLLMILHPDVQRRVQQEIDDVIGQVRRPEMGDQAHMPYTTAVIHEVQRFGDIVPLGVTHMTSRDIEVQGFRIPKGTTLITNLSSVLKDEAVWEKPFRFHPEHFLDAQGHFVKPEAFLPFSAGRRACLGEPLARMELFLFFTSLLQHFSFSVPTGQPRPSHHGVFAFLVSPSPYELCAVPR
Supply the numeric figure in %, leaving out any unit text.

In [3]: df
Out[3]:
                                   compound  units_text  recorded_value
0  Cc1ccc(OC[C@@H]2CN(S(=O)(=O)c3c(C(N)=O)[nH]c4ccc(Cl)cc34)CCO2)cc1-c1ccccc1 [Compound 20]           %              25

query: May I ask what inhibition at 10 uM has been recorded for CCOc1ccc(-c2cccc(OC[C@@H]3CN(S(=O)(=O)c4c(C(N)=O)[nH]c5ccc(Cl)cc45)CCO3)c2)cn1 [Compound 17] ?
result: 13

query: Query (compound): NC(=O)c1[nH]c2ccc(Cl)cc2c1S(=O)(=O)N1CCO[C@H](COc2ccc(-c3ncccn3)cc2)C1 [Compound 53] ; field requested: inhibition at 10 uM
result: 0

query: // lookup inhibition at 10 uM for Cc1cc(OC[C@@H]2CN(S(=O)(=O)c3c(C(N)=O)[nH]c4ccc(Cl)cc34)CCO2)ccc1-c1ccnc(Cl)c1 [Compound 87]
result: 16

query: What measured inhibition at 10 uM goes with Cc1cc(-c2ccc(OC[C@@H]3CN(S(=O)(=O)c4c(C(N)=O)[nH]c5ccc(Cl)cc45)CCO3)cc2)ccn1 [Compound 51] ?
result: 34

query: Please report the recorded inhibition at 10 uM for NC(=O)c1[nH]c2ccc(I)cc2c1S(=O)(=O)N1CCO[C@H](COc2ccccc2)C1 [Compound 999, reference compound] .
result: 13

###

experiment: Oral absorption in Swiss mice; type: in vivo; conditions: male, mouse, plasma, po, 10 mg/kg p.o., read-out: AUC0-infinity
The entries below are paired with their reported AUC(0-inf).
Could you give the number and then its unit, please?

// below: answered compounds
In [3]: df
Out[3]:
                                   compound  measured_attribute  recorded_value
0  COc1ccc(-c2cccc(OC[C@@H]3CN(S(=O)(=O)c4c(C(N)=O)[nH]c5ccc(Cl)cc45)CCO3)c2)cn1          AUC(0-inf)    1.94 µg·h/mL
1  NC(=O)c1[nH]c2ccc(I)cc2c1S(=O)(=O)N1CCO[C@H](COc2ccccc2)C1 [Compound 999, reference compound]          AUC(0-inf)    1.05 µg·h/mL

query: Which AUC(0-inf) value belongs to `NC(=O)c1[nH]c2ccc(Cl)cc2c1S(=O)(=O)N1CCO[C@H](COc2cccc(-c3cccnc3F)c2)C1` ?
result: 1.96 µg·h/mL

query: Can you look up the measured AUC(0-inf) of `Cc1cc(-c2ccc(OC[C@@H]3CN(S(=O)(=O)c4c(C(N)=O)[nH]c5ccc(Cl)cc45)CCO3)cc2)ccn1` for me?
result: 3.25 µg·h/mL

query: For `NC(=O)c1[nH]c2ccc(Cl)cc2c1S(=O)(=O)N1CCO[C@H](COc2ccc(-c3ccncc3)cc2)C1` , what is its reported AUC(0-inf)?
result: 3.19 µg·h/mL

###

assay: Oral absorption in Swiss mice; type: in vivo; details: 10 mg/kg p.o.
MEASURED ATTRIBUTE: AUC as compared to compound 999

>>> df
                              smiles_record  recorded_value
0  NC(=O)c1[nH]c2ccc(Cl)cc2c1S(=O)(=O)N1CCO[C@H](COc2ccc(-c3ccncc3)cc2)C1          higher
1  COc1ccc(-c2cccc(OC[C@@H]3CN(S(=O)(=O)c4c(C(N)=O)[nH]c5ccc(Cl)cc45)CCO3)c2)cn1          higher
2  Cc1ccc(OC[C@@H]2CN(S(=O)(=O)c3c(C(N)=O)[nH]c4ccc(Cl)cc34)CCO2)cc1-c1ccccc1          higher

###

Parameter log10 of IC50: see the listing below.
target: intracellular kinase domain of human IGF-1R (GST fusion protein) (Homo sapiens, UniProt P08069); construct: IGFRK and IRK enzyme used for the assay was intracellular kinase domain of human IGF-1R; GST; assay: In vitro IGF-1R kinase assay (HTRF); conditions: ATP 20 μM, IGFRK 0.25 nM
Response schema: value (number) is log10 of IC50 in units of nM.

Before answering, review these 6 worked examples.
>>> df
                              smiles_record  measured_attribute  recorded_value
0  COc1ccc(-c2ccc(OC[C@@H]3CN(S(=O)(=O)c4c(C(N)=O)[nH]c5ccc(Cl)cc45)CCO3)cc2)cc1       log10 of IC50            2.31
1  COc1ncc(-c2cccc(OC[C@@H]3CN(S(=O)(=O)c4c(C(N)=O)[nH]c5ccc(Cl)cc45)CCO3)c2)cn1       log10 of IC50            0.30
2  NC(=O)c1[nH]c2ccc(Cl)cc2c1S(=O)(=O)N1CCO[C@H](COc2cccc(-c3ccc(C(F)(F)F)nc3)c2)C1       log10 of IC50            1.81
3  NC(=O)c1[nH]c2ccc(Cl)cc2c1S(=O)(=O)N1CCO[C@H](COc2cccc(-c3ccc(F)cc3)c2)C1       log10 of IC50            1.19
4  NC(=O)c1[nH]c2ccc(Cl)cc2c1S(=O)(=O)N1CCO[C@H](COc2cccc(-c3ccccc3)n2)C1       log10 of IC50            1.67
5  NC(=O)c1[nH]c2ccc(Cl)cc2c1S(=O)(=O)N1CCO[C@H](COc2ccc(-c3ccc(F)nc3)cc2)C1       log10 of IC50            1.11

query: Could you share which log10 of IC50 value was measured for `Cc1cc(OC[C@@H]2CN(S(=O)(=O)c3c(C(N)=O)[nH]c4ccc(Cl)cc34)CCO2)ccc1-c1cccnc1F` ?
result: 1.58

query: Reported log10 of IC50 for `NC(=O)c1[nH]c2ccc(Cl)cc2c1S(=O)(=O)N1CCO[C@H](COc2ccc(-c3ncccn3)cc2)C1` : what is it?
result: 0.81

Where do these numbers come from? They come from patent US20150119394A1.
